Source of measurements: paper PMC9102017

TESTED_ON: Porcine pancreatic α-amylase (Sus scrofa)
Construct: purchased Sigma-Aldrich Chemical Co. (St. Louis, MO, USA) A3176
Sequence (P00690 16-511): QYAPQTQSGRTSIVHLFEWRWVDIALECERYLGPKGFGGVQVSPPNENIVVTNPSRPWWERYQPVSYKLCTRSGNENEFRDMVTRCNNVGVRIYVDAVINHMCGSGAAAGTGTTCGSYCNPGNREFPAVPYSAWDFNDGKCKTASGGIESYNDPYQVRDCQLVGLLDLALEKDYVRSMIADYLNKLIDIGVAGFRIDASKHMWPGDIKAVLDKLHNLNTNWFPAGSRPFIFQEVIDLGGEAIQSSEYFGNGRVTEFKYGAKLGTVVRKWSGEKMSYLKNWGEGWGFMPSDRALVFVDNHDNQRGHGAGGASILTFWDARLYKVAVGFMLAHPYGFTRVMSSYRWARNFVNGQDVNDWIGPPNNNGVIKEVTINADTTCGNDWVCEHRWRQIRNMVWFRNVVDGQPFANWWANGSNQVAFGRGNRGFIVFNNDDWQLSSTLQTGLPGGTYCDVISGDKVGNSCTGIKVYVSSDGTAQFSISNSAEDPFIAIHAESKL
ASSAY_NOTES: In vitro α-amylase inhibition assay (starch/DNS, absorbance at 540 nm)
Type: biochemical
CONDITION_INFO: 0.2 M potassium phosphate buffer pH 6.8, 37 °C, mean ± SD, triplicate; read-out: IC50 Values against α-Amylase (converted)
Experimental: The α-amylase inhibition assay was adapted from Phan et al. with slight modifications. In order to simulate the small intestine conditions, a buffer pH of 6.8 and an incubation temperature of 37 °C were used. […] A total of 200 μL of the reaction solution was transferred to a 96-well plate and the absorbance was measured at 540 nm using a microplate reader (Tecan Infinite 200 PRO; Tecan, Männedorf, Zürich, Switzerland). All of the samples were prepared and measured in triplicate. […]
TEST_READOUT: IC50 (mM)
Kindly answer with a numeric value in mM, unit omitted.

O=C(O)c1ccc(O)cc1 [Compound 2, 4-Hydroxybenzoic acid] | 25.7

# input Output measured IC50 for this item: Cc1cc(C(=O)O)cc(C)c1O [Compound 11, 4-Hydroxy-3,5-dimethylbenzoic acid]
# output 26

# input Output measured IC50 for this item: O=C(O)c1ccccc1
# output 45.2

# input Output measured IC50 for this item: Cc1ccc(C(=O)O)cc1
# output 52.3

# input Output measured IC50 for this item: Cc1cc(O)cc(O)c1C(=O)O [Compound 12, 2,4-Dihydroxy-6-methylbenzoic acid]
# output 18.1
